- SYSTEM_TESTED: mNPR1-mFc:hANP complex (mouse; human) (UniProt P01160)
- ASSAY_OVERVIEW: SPR Biacore, mAb captured by anti-human Fc, 37C
PROPERTY_MEASURED: 100 nM Ag Bound (RU)
A number alone suffices; assume RU.

Inquiry: Query 100 nM Ag Bound (RU) for mAb25508 (antibody, human IgG4, V domains shown) VH: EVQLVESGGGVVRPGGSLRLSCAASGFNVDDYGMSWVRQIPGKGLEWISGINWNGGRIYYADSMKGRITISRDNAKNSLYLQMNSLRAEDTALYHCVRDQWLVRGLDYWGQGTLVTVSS VL: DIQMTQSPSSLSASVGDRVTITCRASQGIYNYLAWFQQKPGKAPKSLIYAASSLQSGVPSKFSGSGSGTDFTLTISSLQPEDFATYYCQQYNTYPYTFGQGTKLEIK
Reply text: 0
